Listed below: Duration of effect values for each entry.
Tested on: intracavernous pressure (corpus cavernosum penis)
Assay: intracavernous pressure in narcotized rats, intravenous injection
Type: in vivo
Settings: intravenously: GBB 2.0 mg/kg, THP 10.0 mg/kg, sildenafil 3.0 mg/kg, papaverine 2.0 mg/kg
Where a name gives a salt, the structure may show the parent alone.

{"columns": ["compound", "Duration of effect, min"],
 "data": [
  ["C[N+](C)(C)NCCC(=O)[O-] [THP, 3-(2,2,2-trimethylhydrazinium)propionate]", 0.9],
  ["COc1ccc(Cc2nccc3cc(OC)c(OC)cc23)cc1OC [Papaverine, Papaverine hydrochloride]", 0.9],
  ["CCCc1nn(C)c2c(=O)[nH]c(-c3cc(S(=O)(=O)N4CCN(C)CC4)ccc3OCC)nc12", 2.5],
  ["C[N+](C)(C)CCCC(=O)[O-]", 2.8]
]}
